The values you see were collected from patent US20080318943A1.

# SYSTEM NAME: GABAA receptor α2β3γ2 (Homo sapiens, UniProt P18507+P47869)
# Construct: expressed in transfected cells; host or cells: Xenopus laevis oocytes injected with cRNA
# TEST DESCRIPTION: Two-electrode voltage-clamp potentiation of GABA EC10 current in Xenopus oocytes, GABAA2
# Assay type: cell-based
# CONDITION NOTES: percentage potentiation of GABA EC10 current divided by that of diazepam
Output schema: class label derived from Relative Potentiation for GABAA2. Mapping: low class (below 0.1), middle class (0.1 to below 0.3), high class (0.3 or more)

>  <COMPOUND STRING>
COc1cc(F)c(-c2cccc3c(N)c4c(nc23)CN(C2CC2)C4=O)c(F)c1

>  <ASSIGNED CATEGORY>
low class

$$$$
>  <COMPOUND STRING>
COc1ncccc1-c1cccc2c(N)c3c(nc12)CN(C1CC1)C3=O

>  <ASSIGNED CATEGORY>
high class

$$$$
>  <COMPOUND STRING>
COc1cncc(-c2cccc3c(N)c4c(nc23)CN(C2CCC2)C4=O)c1

>  <ASSIGNED CATEGORY>
middle class

$$$$
>  <COMPOUND STRING>
COc1cccc(-c2cccc3c(N)c4c(nc23)CN(C2CCC2)C4=O)n1

>  <ASSIGNED CATEGORY>
middle class

$$$$
>  <COMPOUND STRING>
COc1ccccc1-c1c(F)ccc2c(N)c3c(nc12)CN(C1CCC1)C3=O

>  <ASSIGNED CATEGORY>
middle class

$$$$
>  <COMPOUND STRING>
CCN1Cc2nc3c(-c4ccc(OC)cc4OC)c(F)ccc3c(N)c2C1=O

>  <ASSIGNED CATEGORY>
middle class

$$$$
>  <COMPOUND STRING>
Nc1c2c(nc3c(-c4ccncc4)cccc13)CN(C1CCC1)C2=O

>  <ASSIGNED CATEGORY>
middle class

$$$$
>  <COMPOUND STRING>
Nc1c2c(nc3c(-c4cc(Cl)ccc4Cl)cccc13)CN(C1CC1)C2=O

>  <ASSIGNED CATEGORY>
middle class

$$$$
>  <COMPOUND STRING>
CCCN1Cc2nc3c(-c4cc(C)ccc4OC)cccc3c(N)c2C1=O

>  <ASSIGNED CATEGORY>
high class

$$$$
>  <COMPOUND STRING>
CCCN1Cc2nc3c(-c4ccc(OC)nc4OC)cccc3c(N)c2C1=O

>  <ASSIGNED CATEGORY>
high class

$$$$
>  <COMPOUND STRING>
COc1cccc(C#N)c1-c1cccc2c(N)c3c(nc12)CN(C1CC1)C3=O

>  <ASSIGNED CATEGORY>
middle class

$$$$
>  <COMPOUND STRING>
COc1ccc(OC)c(CN2Cc3nc4c(-c5cnccc5OC)cccc4c(N)c3C2=O)c1

>  <ASSIGNED CATEGORY>
middle class

$$$$
>  <COMPOUND STRING>
COc1ccc(CN2Cc3nc4c(-c5cccnc5F)cccc4c(N)c3C2=O)cc1

>  <ASSIGNED CATEGORY>
high class

$$$$
>  <COMPOUND STRING>
CCN1Cc2nc3c(-c4cc(Cl)ccc4OC)c(F)ccc3c(N)c2C1=O

>  <ASSIGNED CATEGORY>
middle class

$$$$
>  <COMPOUND STRING>
COc1cccc(Cl)c1-c1cccc2c(N)c3c(nc12)CN(C1CCC1)C3=O

>  <ASSIGNED CATEGORY>
low class

$$$$
>  <COMPOUND STRING>
CCN1Cc2nc3c(-c4ccc(OC)cc4F)c(F)ccc3c(N)c2C1=O

>  <ASSIGNED CATEGORY>
low class

$$$$
>  <COMPOUND STRING>
COc1cccc(-c2cccc3c(N)c4c(nc23)CN(C)C4=O)c1F

>  <ASSIGNED CATEGORY>
middle class

$$$$
>  <COMPOUND STRING>
CCCN1Cc2nc3c(-c4cc(F)ccc4F)cccc3c(N)c2C1=O

>  <ASSIGNED CATEGORY>
high class

$$$$
>  <COMPOUND STRING>
CCN1Cc2nc3c(-c4ccc(F)cc4F)c(F)ccc3c(N)c2C1=O

>  <ASSIGNED CATEGORY>
low class

$$$$
>  <COMPOUND STRING>
CCCCN1Cc2nc3c(-c4ccc(OC)nc4OC)cccc3c(N)c2C1=O

>  <ASSIGNED CATEGORY>
high class

$$$$

* * *

Listed here: items and their measured Ki.
# SYSTEM NAME: GABAA2 receptors (α2, β3, γ2 receptor subunits transfected into Sf9 cells) (Homo sapiens, UniProt P18507+P47869)
# Sequence (P47869 29-451): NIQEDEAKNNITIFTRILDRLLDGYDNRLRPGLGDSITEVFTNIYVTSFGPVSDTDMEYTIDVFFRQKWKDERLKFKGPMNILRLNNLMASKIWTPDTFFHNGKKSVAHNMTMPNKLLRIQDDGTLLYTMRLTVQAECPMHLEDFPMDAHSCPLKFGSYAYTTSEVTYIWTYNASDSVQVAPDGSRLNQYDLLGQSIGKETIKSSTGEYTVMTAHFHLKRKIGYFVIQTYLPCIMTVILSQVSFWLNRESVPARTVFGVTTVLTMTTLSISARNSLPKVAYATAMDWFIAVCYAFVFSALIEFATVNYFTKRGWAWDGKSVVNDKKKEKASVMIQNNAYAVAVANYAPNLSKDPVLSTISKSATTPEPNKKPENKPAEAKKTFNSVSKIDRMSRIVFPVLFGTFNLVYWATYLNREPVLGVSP
# Sequence (P28472 26-473 partner): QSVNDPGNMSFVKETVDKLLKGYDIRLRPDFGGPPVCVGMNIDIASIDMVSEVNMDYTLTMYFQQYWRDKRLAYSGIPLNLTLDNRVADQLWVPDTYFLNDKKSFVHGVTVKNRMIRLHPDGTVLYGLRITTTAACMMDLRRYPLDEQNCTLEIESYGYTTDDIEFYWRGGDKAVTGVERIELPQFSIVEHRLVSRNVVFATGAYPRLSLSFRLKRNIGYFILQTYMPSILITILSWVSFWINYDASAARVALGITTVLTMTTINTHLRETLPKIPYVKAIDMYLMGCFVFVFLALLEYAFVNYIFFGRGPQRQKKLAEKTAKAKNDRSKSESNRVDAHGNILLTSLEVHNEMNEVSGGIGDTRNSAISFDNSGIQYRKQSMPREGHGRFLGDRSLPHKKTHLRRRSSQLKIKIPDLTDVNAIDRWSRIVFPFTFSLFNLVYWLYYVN
# Sequence (P18507 40-475): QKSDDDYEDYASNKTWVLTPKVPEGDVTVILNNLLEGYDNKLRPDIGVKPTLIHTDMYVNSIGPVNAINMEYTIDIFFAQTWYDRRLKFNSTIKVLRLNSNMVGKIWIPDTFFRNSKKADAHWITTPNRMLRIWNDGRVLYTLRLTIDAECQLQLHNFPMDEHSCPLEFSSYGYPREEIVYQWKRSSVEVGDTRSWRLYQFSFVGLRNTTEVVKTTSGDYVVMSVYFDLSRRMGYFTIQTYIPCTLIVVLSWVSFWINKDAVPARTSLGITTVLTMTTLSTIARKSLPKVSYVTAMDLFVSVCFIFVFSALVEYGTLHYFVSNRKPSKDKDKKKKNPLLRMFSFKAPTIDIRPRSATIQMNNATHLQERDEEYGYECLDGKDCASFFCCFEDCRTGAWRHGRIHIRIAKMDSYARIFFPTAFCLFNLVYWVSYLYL
# TEST DESCRIPTION: GABAA2 Binding Method ([3H]-Flunitrazepam displacement)
# CONDITION NOTES: [3H]-Flunitrazepam ~2 nM, α2β3γ2 Sf9 membranes, 1 hr at 4° C.

>  <COMPOUND STRING>
CCCN1Cc2nc3c(-c4cncc(C#N)c4)cccc3c(N)c2C1=O

>  <Ki>
64.9 nM

$$$$
>  <COMPOUND STRING>
COc1ncc(-c2cccc3c(N)c4c(nc23)CN(C2CCC2)C4=O)c(OC)n1

>  <Ki>
4.23 nM

$$$$
>  <COMPOUND STRING>
COc1ccc(F)c(-c2c(F)ccc3c(N)c4c(nc23)CN(C2CCC2)C4=O)c1

>  <Ki>
0.333 nM

$$$$
>  <COMPOUND STRING>
COc1ccc(CN2Cc3nc4c(-c5cnn(C)c5)cccc4c(N)c3C2=O)cc1

>  <Ki>
70.6 nM

$$$$
>  <COMPOUND STRING>
CCCN1Cc2nc3c(-c4ccccc4)cccc3c(N)c2C1=O

>  <Ki>
43.8 nM

$$$$
>  <COMPOUND STRING>
COc1ccc(-c2c(F)ccc3c(N)c4c(nc23)CN(C2CCC2)C4=O)c(C)n1

>  <Ki>
1.14 nM

$$$$
>  <COMPOUND STRING>
COc1ccc(CN2Cc3nc4c(-c5cc(C)nn5C)cccc4c(N)c3C2=O)cc1

>  <Ki>
10.3 nM

$$$$
>  <COMPOUND STRING>
COc1ccc(F)c(-c2cccc3c(N)c4c(nc23)CN(C2CCC2)C4=O)c1

>  <Ki>
1.34 nM

$$$$
>  <COMPOUND STRING>
Cc1ccc(-c2cccc3c(N)c4c(nc23)CN(C2CCC2)C4=O)cn1

>  <Ki>
4.44 nM

$$$$
>  <COMPOUND STRING>
COc1cnc(OC)c(-c2cccc3c(N)c4c(nc23)CN(C2CCC2)C4=O)c1

>  <Ki>
3.35 nM

$$$$

* * *

# SYSTEM NAME: GABAA receptor α1β2γ2 (Homo sapiens, UniProt P14867+P18507)
# Construct: expressed in transfected cells; host or cells: Xenopus laevis oocytes injected with cRNA
# Sequence (P14867 28-456, one chain of several): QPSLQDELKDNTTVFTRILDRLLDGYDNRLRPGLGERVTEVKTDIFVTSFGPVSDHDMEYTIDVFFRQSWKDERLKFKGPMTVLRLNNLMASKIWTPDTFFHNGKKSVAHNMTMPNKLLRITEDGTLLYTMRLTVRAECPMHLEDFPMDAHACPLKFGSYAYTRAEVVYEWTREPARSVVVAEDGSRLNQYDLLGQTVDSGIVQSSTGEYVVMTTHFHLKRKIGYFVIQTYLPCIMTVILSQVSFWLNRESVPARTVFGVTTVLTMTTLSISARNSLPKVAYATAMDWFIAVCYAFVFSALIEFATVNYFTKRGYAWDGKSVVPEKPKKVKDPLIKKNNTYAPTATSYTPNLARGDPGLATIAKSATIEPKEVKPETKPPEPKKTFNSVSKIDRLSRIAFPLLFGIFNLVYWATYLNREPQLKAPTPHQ
# Sequence (P47870 25-512 partner limits assumed, one chain of several): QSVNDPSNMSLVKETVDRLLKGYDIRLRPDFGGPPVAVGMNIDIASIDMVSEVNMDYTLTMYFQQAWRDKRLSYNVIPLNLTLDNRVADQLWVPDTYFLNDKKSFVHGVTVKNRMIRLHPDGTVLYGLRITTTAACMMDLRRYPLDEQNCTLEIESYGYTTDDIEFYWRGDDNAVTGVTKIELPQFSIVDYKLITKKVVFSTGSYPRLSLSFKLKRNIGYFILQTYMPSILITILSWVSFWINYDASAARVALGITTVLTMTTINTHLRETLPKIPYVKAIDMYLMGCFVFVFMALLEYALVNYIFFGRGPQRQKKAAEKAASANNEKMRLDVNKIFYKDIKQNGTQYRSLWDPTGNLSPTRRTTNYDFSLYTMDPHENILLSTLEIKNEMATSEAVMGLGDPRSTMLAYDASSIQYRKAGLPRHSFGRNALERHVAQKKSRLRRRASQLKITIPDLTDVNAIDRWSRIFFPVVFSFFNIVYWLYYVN
# TEST DESCRIPTION: Two-electrode voltage-clamp potentiation of GABA EC10 current in Xenopus oocytes, GABAA1
# Assay type: cell-based
# CONDITION NOTES: percentage potentiation of GABA EC10 current divided by that of diazepam
MEASURED ENDPOINT: Relative Potentiation for GABAA1

>  <COMPOUND STRING>
CCN1Cc2nc3c(-c4cc(OC)ccc4F)cccc3c(N)c2C1=O

>  <SYSTEM NAME>
GABAA receptor α1β2γ2 (Homo sapiens, UniProt P14867+P18507)

>  <MEASURED ENDPOINT>
Relative Potentiation for GABAA1

>  <MEASUREMENT>
0.02

$$$$
>  <COMPOUND STRING>
COc1ccccc1-c1c(F)ccc2c(N)c3c(nc12)CN(C1CCC1)C3=O

>  <SYSTEM NAME>
GABAA receptor α1β2γ2 (Homo sapiens, UniProt P14867+P18507)

>  <MEASURED ENDPOINT>
Relative Potentiation for GABAA1

>  <MEASUREMENT>
−0.047

$$$$
>  <COMPOUND STRING>
CCN1Cc2nc3c(-c4ccc(OC)c(OC)c4)c(F)ccc3c(N)c2C1=O

>  <SYSTEM NAME>
GABAA receptor α1β2γ2 (Homo sapiens, UniProt P14867+P18507)

>  <MEASURED ENDPOINT>
Relative Potentiation for GABAA1

>  <MEASUREMENT>
0.068

$$$$
>  <COMPOUND STRING>
Nc1c2c(nc3c(-c4ccccc4C(F)(F)F)cccc13)CN(C1CC1)C2=O

>  <SYSTEM NAME>
GABAA receptor α1β2γ2 (Homo sapiens, UniProt P14867+P18507)

>  <MEASURED ENDPOINT>
Relative Potentiation for GABAA1

>  <MEASUREMENT>
0.48

$$$$
>  <COMPOUND STRING>
Nc1c2c(nc3c(-c4ncccn4)cccc13)CN(C1CCC1)C2=O

>  <SYSTEM NAME>
GABAA receptor α1β2γ2 (Homo sapiens, UniProt P14867+P18507)

>  <MEASURED ENDPOINT>
Relative Potentiation for GABAA1

>  <MEASUREMENT>
0.013

$$$$
